tested on: ACHN renal; assay: NCI-60 one-dose screen, 48 h (100 = growth as untreated, 0 = no growth, -100 = all killed); settings: 10 µM unless noted
Compounds without any hit were thinned out: in the full panel of roughly 83,000, 20% have a hit.
ASSAY_METRIC: growth (%)
API: value field is a number in %; no unit string.

*Q* Given the compound COc1ccc([C@H]2c3cc(OC)c(OC)cc3C=C(C=O)C2CO)cc1OC (stereo partly drawn) , what is its reported growth?
*A* 57.8

*Q* Now give it for COc1ccc(NC(=O)n2nc(/C=C\c3ccc(O)c(OC)c3)cc2/C=C\c2ccc(O)c(OC)c2)cc1 too.
*A* 26

*Q* Now give it for COc1ccc2c(c1OC)C(=O)O[C@H]2[C@H]1c2c(cc3c(c2OC)OCO3)CCN1C too.
*A* 95.8

* * *

System: CCRF-CEM leukemia
Assay: NCI-60 one-dose screen, 48 h (100 = growth as untreated, 0 = no growth, -100 = all killed)
Conditions: 10 µM unless noted
Method: Growth inhibition of the CCRF-CEM human tumor cell line is measured as a screen for anti-cancer activity. Cells are grown in 96 well plates and exposed to the test compound for 48 hours. Compounds are tested at a single concentration, which is 10^-5 M for most compounds. The reported endpoint is percent growth (GI% or GIPRCNT), where numbers from 0 - 100% represent growth inhibition, and numbers from -100% - 0 represent cell death. For example, a value of 40 represents 60% growth inhibition. […]
This is part of a sample that, as a whole, favours compounds with a hit. Of some 83,000 tested, about 20% had one in any assay.
For each record, write down the corresponding growth.
API: value field is a number in %; no unit string.

*Q* Given the compound O=c1c2cc(F)ccc2sc2c(NCCCNCCO)nc3ccc(F)cc3c12 , what is its reported growth?
*A* 15.1

*Q* Now give it for C=C(C)C1CCC2(C)OC2C1 (stereo not drawn) too.
*A* 110

*Q* Now give it for c1ccc(OCc2nnc(-c3ccc(Oc4ccccc4)cc3)o2)cc1 too.
*A* 96.7

* * *

For each record, write down the corresponding growth.
test system: UACC-62 melanoma; experiment: NCI-60 one-dose screen, 48 h (100 = growth as untreated, 0 = no growth, -100 = all killed); details: 10 µM unless noted
Compounds without any hit were thinned out: in the full panel of roughly 83,000, 20% have a hit.
API: value field is a number in %; no unit string.

*Q* Given the molecule COc1ccc(CN2c3ccccc3Sc3ccccc32)c(F)c1 , what is its reported growth?
*A* 33.1

*Q* Now give it for CCCCCCNC(=O)Oc1ccc(/C(=C(\C)c2ccc(Cl)cc2)c2ccc(OCCCN(C)C)cc2)cc1 too.
*A* 96.9

*Q* Now give it for CCC12CCC[N+]3([O-])CCC4(C(=Nc5ccccc54)C(O)(C(=O)OC)C1)C23 (centres undefined) too.
*A* 103

*Q* Now give it for c1ccc2cc(C[n+]3ccn(CCCCCCn4cc[n+](Cc5ccc6ccccc6c5)c4)c3)ccc2c1 too.
*A* 50.1

* * *

test system: KM12 colon; experiment: NCI-60 one-dose screen, 48 h; settings: 10 µM unless noted
About 83,000 compounds went through this panel and 20% of them were active in at least one assay; those are over-represented in the sample as a whole. Active and inactive are the calls of the source. How the source made its calls: active means growth percent below 10; inactive means the rest.
Result category, one only: Y for active, N for inactive

*Q* Recorded call for COc1cc(Nc2cn[nH]c2-c2ccc(Cl)cc2)cc(OC)c1OC ?
*A* N

*Q* Now give it for COc1ccc(NC(=O)n2nc(/C=C\c3ccc(O)c(OC)c3)cc2/C=C\c2ccc(O)c(OC)c2)cc1 too.
*A* N

*Q* Now give it for Cc1ccc(-c2nc(N3CCN(C(=O)Nc4ccc(Cl)c(C(F)(F)F)c4)CC3)c3ccccc3n2)cc1 too.
*A* N

*Q* Now give it for CC1=C(C)C(=O)C(Nc2cccc(C(=O)OC(C)(C)C)c2)=C(Br)C1=O too.
*A* N

*Q* Now give it for NCCCNc1nc2ccccc2c2c(=O)c3cccc(F)c3sc12 too.
*A* Y

*Q* Now give it for CC(=O)OC[C@H]1OC(Sc2sc(C(=O)c3ccc(C)cc3)c(N)c2-c2nc3ccccc3s2)[C@H](OC(C)=O)[C@@H](OC(C)=O)[C@@H]1OC(C)=O (some centres not stated) too.
*A* N

*Q* Now give it for O=C1CSC(c2c(Cl)cccc2Cl)N1c1nc(Cl)cc(=O)[nH]1 (configuration not stated) too.
*A* N

*Q* Now give it for COc1ccc(-c2conc2-c2ccccc2)cc1 too.
*A* Y

*Q* Now give it for c1cc2nc(-c3cn[nH]c3)c3c(c2cc1-c1cn[nH]c1)C1CCC3C1 (configuration not stated) too.
*A* N

*Q* Now give it for COc1nc2ccc(C)cc2cc1-c1nc2c(cnn2-c2ccccc2)c(=O)[nH]1 too.
*A* N

*Q* Now give it for COc1cc(C(=O)c2cnc(-c3c[nH]c4cccc(C)c34)[nH]2)cc(OC)c1OC too.
*A* Y

*Q* Now give it for O=S(=O)(Nc1ccc(-c2nc(-c3cccc(OCCN4CCOCC4)c3)c(-c3ccnc(Br)c3)[nH]2)cc1)c1ccccc1 too.
*A* Y

*Q* Now give it for S=C(c1cccs1)N1CCN(c2cccc(Cl)c2)CC1 too.
*A* N

*Q* Now give it for C[C@H](C(=O)Nc1ccc(S(N)(=O)=O)cc1)S(=O)(=O)c1ccccc1 too.
*A* N

*Q* Now give it for COc1ccc(NC2=C(Br)C(=O)C(C)=C(C)C2=O)cc1 too.
*A* N

*Q* Now give it for c1ccc(-c2nc3sc(-c4ccccc4)cn3n2)cc1 too.
*A* N

*Q* Now give it for O=c1c2cc(F)ccc2sc2c(NCCO)nc3ccccc3c12 too.
*A* N

*Q* Now give it for COc1ccc(C2CC(c3ccc(Nc4nc(Nc5ccc(F)cc5)nc(Nc5ccc(Cl)cc5)n4)cc3)=NN2C(C)=O)cc1 (configuration not stated) too.
*A* N

*Q* Now give it for O=c1c2cc(F)ccc2sc2c(N3CCNCC3)nc3ccccc3c12 too.
*A* Y

*Q* Now give it for Brc1c[n+](Cc2ccc3ccccc3c2)cn1Cc1ccc2ccccc2c1 too.
*A* Y

*Q* Now give it for COc1cc2oc(-c3ccc(O)cc3)cc(=O)c2c(O)c1-c1c(OC)cc(O)c2c(=O)cc(-c3ccc(O)cc3)oc12 too.
*A* N

*Q* Now give it for OC(c1ccccc1)C(NC(Cc1ccccc1)c1ccccc1)c1ccccc1 (configuration not stated) too.
*A* N

*Q* Now give it for O=C1/C(=C/c2ccccc2[N+](=O)[O-])Oc2ccc(O)c(O)c21 too.
*A* N

*Q* Now give it for c1ccc2c(c1)Nc1ccncc1S2 too.
*A* N

*Q* Now give it for COc1ccc(C2NC(=O)C(C#N)c3c2sc2c(F)cccc32)c(OC)c1 (configuration not stated) too.
*A* N

*Q* Now give it for O=C(CSc1nccc(Nc2ccc(S(=O)(=O)Nc3nccs3)cc2)n1)c1ccc(C(F)(F)F)cc1 too.
*A* N

*Q* Now give it for COc1ccc([C@H]2c3cc(OC)c(OC)cc3C=C(C=O)C2CO)cc1OC (some centres not stated) too.
*A* N

*Q* Now give it for C=C1CC[C@H](C(C)C)[C@@H]2[C@H]1[C@H]1CC(=C)[C@@H](O)CC[C@@](C)(O)[C@@H]2O1 too.
*A* N

*Q* Now give it for CNc1nc2c(s1)C(c1cccc(F)c1)CC(=O)N2 (configuration not stated) too.
*A* N

*Q* Now give it for CNCCCNc1nc2ccccc2c2c(=O)c3cc(F)ccc3sc12 too.
*A* Y

*Q* Now give it for Oc1ccc(CCl)c2cccnc12 too.
*A* N

*Q* Now give it for CC(=O)Oc1ccccc1C(=O)N=C1[Se]CCCN1C(=O)c1ccccc1OC(C)=O too.
*A* N

*Q* Now give it for CCc1ccc(Oc2c(-c3ccc(OCc4ccc(Cl)cc4)cc3O)nn(C)c2C(F)(F)F)cc1 too.
*A* Y

*Q* Now give it for COc1cc(/C=C/c2ccccc2)cc(OC)c1 too.
*A* N

*Q* Now give it for Cc1ccc(-c2nc3c(c(-c4ccccc4)nn3-c3ccccc3)c(-c3ccc(O)cc3)c2C#N)cc1 too.
*A* N

*Q* Now give it for Cc1ccc(C(=O)NCCNc2nccc(-c3c(-c4cccc(F)c4)nc4sccn34)n2)cc1 too.
*A* N

*Q* Now give it for COc1cc(C)c(Cc2cnc(N)nc2N)cc1OC too.
*A* N

Data origin: PubChem BioAssay (NCI)
